Data credit: the supplement of paper PMC4466236

Tested on: MvaT
RUN DESCRIPTION: PBM 8-mer E-score (mean of HK and ME arrays) (E-score (dimensionless, -0.5 to 0.5)); higher = stronger relative binding preference
The full ranking holds about 33,000 sequences; the median of “E-score (dimensionless, -0.5 to 0.5)” is about -0.058, and the highest 2% start at about 0.35. The sample holds the highest values, similar sequences and a random draw of the others, so the mix is not that of the screen.
Let's look at some sequences and their measured PBM 8-mer E-score.

MONOMER SEQUENCE	PBM 8-mer E-score
CTTATATA	0.452
GCAGCTAA	0.0363
CAGACAAA	0.0494

---

Test system: MvaT
RUN DESCRIPTION: PBM 8-mer E-score (mean of HK and ME arrays) (E-score (dimensionless, -0.5 to 0.5)); higher = stronger relative binding preference
Whole data set: some 33,000 sequences, median “E-score (dimensionless, -0.5 to 0.5)” near -0.058, cut for the highest 2% near 0.35. What follows is part of a selection rich in the highest values, with near analogues and random picks from the rest.
I would appreciate it if you labelled entries satisfied when PBM 8-mer E-score is 0.3 or higher, otherwise not satisfied.

MONOMER SEQUENCE	CAT
AATAGAAG	not satisfied
CTGCCACC	not satisfied
CTATAAAA	not satisfied
GAAGCATA	not satisfied
ATATGTTA	satisfied
CTTTAGAC	not satisfied
ACTATTTC	not satisfied
AAATACAA	satisfied
GACCATAA	not satisfied
AATAAAGT	satisfied
AATTAGTC	not satisfied
TAGTTATA	satisfied
